experiment: QELS particle size and zeta potential of cross-linking peptide DNA condensates, Example 5; format: physicochemical; conditions: following addition of TCEP (1 mM)
Bridges are numbered along the chain shown (N, C = ends). Where no end group is shown, it is not given here. The star is where a group is joined. Carboxymethyl = O=C(O)C*
result-type: Particle Size Mean Diameter, Reduced (nm)
Could you give me the number in nm? Just the number is fine.

- substance: "Cys-Trp-Lys8-Cys-Lys8-Cys (CWKKKKKKKKCKKKKKKKKC) [III]"
  Particle Size Mean Diameter, Reduced, nm: 136
- substance: "Alk-S-Cys-Trp-Lys18 (C(Carboxymethyl)WKKKKKKKKKKKKKKKKKK) [AlkCWK18]"
  Particle Size Mean Diameter, Reduced, nm: 74
- substance: "Cys-Trp-Lys17-Cys (CWKKKKKKKKKKKKKKKKKC) [Peptide II]"
  Particle Size Mean Diameter, Reduced, nm: 121

For the next question, use this substance.
[Q] Return Particle Size Mean Diameter, Reduced for the following substance: Lys18-Trp-Cys-S-S-Cys-Trp-Lys18 (KKKKKKKKKKKKKKKKKKWCCWKKKKKKKKKKKKKKKKKK; disulfide 20-21; also: disulfide-linked dimer of two CWK18 chains, no peptide bond between positions 20 and 21) [DiCWK18]
[A] 153

* * *

experiment: QELS particle size and zeta potential of cross-linking peptide DNA condensates, Example 5; assay type: physicochemical; conditions: HBM after 2 h incubation; 50 μg/ml DNA, 0.4 nmol peptide per μg DNA; scattering angle 90°
Bridges are numbered along the chain shown (N, C = ends). Where no end group is shown, it is not given here. The star is where a group is joined. Carboxymethyl = O=C(O)C*
result-type: Particle Size Mean Diameter, Oxidized, 90° (nm)
Give just the numeric value; nm need not be written.

- substance: "Lys18-Trp-Cys-S-S-Cys-Trp-Lys18 (KKKKKKKKKKKKKKKKKKWCCWKKKKKKKKKKKKKKKKKK; disulfide 20-21; also: disulfide-linked dimer of two CWK18 chains, no peptide bond between positions 20 and 21) [DiCWK18]"
  number: 68
- substance: "Cys-Trp-Lys17-Cys (CWKKKKKKKKKKKKKKKKKC) [Peptide II]"
  number: 42
- substance: "Cys-Trp-Lys8-Cys-Lys8-Cys (CWKKKKKKKKCKKKKKKKKC) [III]"
  number: 39

// next item, Particle Size Mean Diameter, Oxidized, 90° requested
[Q] Give the measured Particle Size Mean Diameter, Oxidized, 90° for Alk-S-Cys-Trp-Lys18 (C(Carboxymethyl)WKKKKKKKKKKKKKKKKKK) [AlkCWK18]
[A] 95

* * *

test: QELS particle size and zeta potential of cross-linking peptide DNA condensates, Example 5; assay type: physicochemical; settings: HBM after 2 h incubation; 50 μg/ml DNA, 0.4 nmol peptide per μg DNA; scattering angle 15°
Bridges are numbered along the chain shown (N, C = ends). Where no end group is shown, it is not given here. The star is where a group is joined. Carboxymethyl = O=C(O)C*
result-type: Particle Size Mean Diameter, Oxidized, 15°
Answer with the value and then the unit.

- substance: "Lys18-Trp-Cys-S-S-Cys-Trp-Lys18 (KKKKKKKKKKKKKKKKKKWCCWKKKKKKKKKKKKKKKKKK; disulfide 20-21; also: disulfide-linked dimer of two CWK18 chains, no peptide bond between positions 20 and 21) [DiCWK18]"
  result: "74 nm"

[Q] Supply recorded Particle Size Mean Diameter, Oxidized, 15° for Cys-Trp-Lys17-Cys (CWKKKKKKKKKKKKKKKKKC) [Peptide II] here.
[A] 31 nm

[Q] Indicate its recorded Particle Size Mean Diameter, Oxidized, 15°; the substance in question is Cys-Trp-Lys8-Cys-Lys8-Cys (CWKKKKKKKKCKKKKKKKKC) [III]
[A] 26 nm

[Q] Provide measured Particle Size Mean Diameter, Oxidized, 15° value, entry: Alk-S-Cys-Trp-Lys18 (C(Carboxymethyl)WKKKKKKKKKKKKKKKKKK) [AlkCWK18]
[A] 97 nm

Values compiled from patent US6770740B1.
